System: NCI-H1975 (EGFR L858R/T790M)
TEST DETAILS: Inhibition test for growth of cancer cell expressing EGFR (MTS), NCI-H1975
Assay type: cell-based
CONDITION NOTES: Homo sapiens; NCI-H1975 cells, 48 hours, MTS; read-out: GI50 NCI-H1975 EGFR L858R/T790M
Overview of recorded GI50 for various compounds

>  <COMPOUND>
C=CC(=O)Nc1cccc(Oc2nc(Nc3ccc(C4CCN(C)CC4)c(F)c3)nc3ccsc23)c1 [Example 127]

>  <TEST SYSTEM>
NCI-H1975 (EGFR L858R/T790M)

>  <GI50>
< 50 nM

$$$$
>  <COMPOUND>
C=CC(=O)Nc1cccc(Oc2nc(Nc3ccc(N4CCNCC4)cc3)nc3ccsc23)c1 [Example 158]

>  <TEST SYSTEM>
NCI-H1975 (EGFR L858R/T790M)

>  <GI50>
100 to 1000 nM

$$$$
>  <COMPOUND>
C=CC(=O)Nc1cccc(Oc2nc(Nc3ccc(N4CCC(CN5CCCCC5)CC4)cc3)nc3ccsc23)c1 [Example 42]

>  <TEST SYSTEM>
NCI-H1975 (EGFR L858R/T790M)

>  <GI50>
< 50 nM

$$$$
>  <COMPOUND>
C=CC(=O)Nc1cccc(Oc2nc(Nc3ccc(C4CCCN(C)C4)c(F)c3)nc3ccsc23)c1 (centres unmarked) [Example 128]

>  <TEST SYSTEM>
NCI-H1975 (EGFR L858R/T790M)

>  <GI50>
< 50 nM

$$$$
>  <COMPOUND>
C=CC(=O)Nc1cccc(Oc2nc(Nc3ccc(S(C)(=O)=O)cc3)nc3ccsc23)c1 [Example 69]

>  <TEST SYSTEM>
NCI-H1975 (EGFR L858R/T790M)

>  <GI50>
< 50 nM

$$$$
>  <COMPOUND>
C=CC(=O)Nc1cccc(Oc2nc(Nc3ccc(N4CCN(C)CC4)cn3)nc3ccsc23)c1 [Example 167]

>  <TEST SYSTEM>
NCI-H1975 (EGFR L858R/T790M)

>  <GI50>
< 50 nM

$$$$
>  <COMPOUND>
C=CC(=O)Nc1cccc(Oc2nc(Nc3ccc(CN4CCCC4)cc3)nc3ccsc23)c1 [Example 176]

>  <TEST SYSTEM>
NCI-H1975 (EGFR L858R/T790M)

>  <GI50>
< 50 nM

$$$$
>  <COMPOUND>
C=CC(=O)Nc1cccc(Oc2nc(Nc3ccc(C4CCN(CC)CC4)cc3)nc3ccsc23)c1 [Example 53]

>  <TEST SYSTEM>
NCI-H1975 (EGFR L858R/T790M)

>  <GI50>
< 50 nM

$$$$
>  <COMPOUND>
C=CC(=O)Nc1cccc(Oc2nc(Nc3ccc(OCCOC)cc3)nc3ccsc23)c1 [Example 61]

>  <TEST SYSTEM>
NCI-H1975 (EGFR L858R/T790M)

>  <GI50>
< 50 nM

$$$$
>  <COMPOUND>
C=CC(=O)Nc1cccc(Oc2nc(Nc3ccc(CS(C)(=O)=O)cc3)nc3ccsc23)c1 [Example 95]

>  <TEST SYSTEM>
NCI-H1975 (EGFR L858R/T790M)

>  <GI50>
< 50 nM

$$$$
>  <COMPOUND>
C=CC(=O)Nc1cccc(Oc2nc(Nc3ccc(N4CCC(n5ccnc5)CC4)cc3)nc3ccsc23)c1 [Example 46]

>  <TEST SYSTEM>
NCI-H1975 (EGFR L858R/T790M)

>  <GI50>
< 50 nM

$$$$
>  <COMPOUND>
C=CC(=O)Nc1ccc(F)c(Oc2nc(Nc3ccc(N4CCN(C)CC4)cc3)nc3ccsc23)c1 [Example 165]

>  <TEST SYSTEM>
NCI-H1975 (EGFR L858R/T790M)

>  <GI50>
< 50 nM

$$$$
>  <COMPOUND>
C=CC(=O)Nc1cccc(Oc2nc(Nc3ccc(C4CCCN(C)C4)cc3OC)nc3ccsc23)c1 (centres unmarked) [Example 115]

>  <TEST SYSTEM>
NCI-H1975 (EGFR L858R/T790M)

>  <GI50>
< 50 nM

$$$$
>  <COMPOUND>
C=CC(=O)Nc1cccc(Oc2nc(Nc3ccc(N4CCN(C)CC4)cc3F)nc3ccsc23)c1 [Example 4]

>  <TEST SYSTEM>
NCI-H1975 (EGFR L858R/T790M)

>  <GI50>
50 to 100 nM

$$$$
>  <COMPOUND>
C=CC(=O)Nc1cccc(Oc2nc(Nc3ccc(/C=C/CN4CCCCC4)cc3)nc3ccsc23)c1 [Example 102]

>  <TEST SYSTEM>
NCI-H1975 (EGFR L858R/T790M)

>  <GI50>
50 to 100 nM

$$$$
>  <COMPOUND>
C=CC(=O)Nc1cccc(Oc2nc(Nc3ccc(C(=O)NC4CCN(C(C)C)CC4)cc3)nc3ccsc23)c1 [Example 83]

>  <TEST SYSTEM>
NCI-H1975 (EGFR L858R/T790M)

>  <GI50>
< 50 nM

$$$$
>  <COMPOUND>
C=CC(=O)Nc1cccc(Oc2nc(Nc3ccc(CN4CCC(N(C)C)CC4)cc3)nc3ccsc23)c1 [Example 180]

>  <TEST SYSTEM>
NCI-H1975 (EGFR L858R/T790M)

>  <GI50>
< 50 nM

$$$$
>  <COMPOUND>
C=CC(=O)Nc1cccc(Oc2nc(Nc3ccc(N4CCC(N(C)C)CC4)cc3)nc3ccsc23)c1 [Example 38]

>  <TEST SYSTEM>
NCI-H1975 (EGFR L858R/T790M)

>  <GI50>
< 50 nM

$$$$
>  <COMPOUND>
C=CC(=O)Nc1cccc(Oc2nc(Nc3ccc(CN4CCN(C)CC4)c(F)c3)nc3ccsc23)c1 [Example 197]

>  <TEST SYSTEM>
NCI-H1975 (EGFR L858R/T790M)

>  <GI50>
< 50 nM

$$$$
>  <COMPOUND>
C=CC(=O)Nc1cccc(Oc2nc(Nc3ccc(N4CCN(C)CC4)c(OC)c3)nc3ccoc23)c1 [Example 234]

>  <TEST SYSTEM>
NCI-H1975 (EGFR L858R/T790M)

>  <GI50>
< 50 nM

$$$$
>  <COMPOUND>
C=CC(=O)Nc1cccc(Oc2nc(Nc3ccc(NC4CCN(C)CC4)c(F)c3)nc3ccsc23)c1 [Example 129]

>  <TEST SYSTEM>
NCI-H1975 (EGFR L858R/T790M)

>  <GI50>
< 50 nM

$$$$
>  <COMPOUND>
C=CC(=O)Nc1cccc(Nc2nc(Nc3ccc(C4CCN(C)CC4)cc3)nc3ccsc23)c1 [Example 209]

>  <TEST SYSTEM>
NCI-H1975 (EGFR L858R/T790M)

>  <GI50>
< 50 nM

$$$$
>  <COMPOUND>
C=CC(=O)Nc1cccc(Oc2nc(Nc3ccc(N4CCN(C5CCN(C)CC5)CC4)nc3)nc3ccsc23)c1 [Example 148]

>  <TEST SYSTEM>
NCI-H1975 (EGFR L858R/T790M)

>  <GI50>
< 50 nM

$$$$
>  <COMPOUND>
C=CC(=O)Nc1cccc(Oc2nc(Nc3ccc(N4CCC(N5CCCC5)CC4)c(Cl)c3)nc3ccsc23)c1 [Example 138]

>  <TEST SYSTEM>
NCI-H1975 (EGFR L858R/T790M)

>  <GI50>
< 50 nM

$$$$
>  <COMPOUND>
C=CC(=O)Nc1cccc(Oc2nc(Nc3ccc(C4CCCN(C)C4)cc3)nc3ccsc23)c1 (centres unmarked) [Example 55]

>  <TEST SYSTEM>
NCI-H1975 (EGFR L858R/T790M)

>  <GI50>
< 50 nM

$$$$
>  <COMPOUND>
C=CC(=O)Nc1cccc(Oc2nc(Nc3ccc(N4CC(C)OC(C)C4)c(F)c3)nc3ccsc23)c1 (centres unmarked) [Example 123]

>  <TEST SYSTEM>
NCI-H1975 (EGFR L858R/T790M)

>  <GI50>
50 to 100 nM

$$$$
